Listed here are compounds together with their documented LD50 (opened)^1h.
Tested on: D. rerio embryos
RUN_DESCRIPTION: D. rerio embryotoxicity "photoactivation" assay (ring-closed photoform in darkness, then in situ photoconversion)
Assay type: in vivo, Danio rerio
STATED_CONDITIONS: after 24 h with ring-closed form in dark, in situ illumination 10 min, λ = 570 nm, approx. 20 mW/cm^2; mortality 1 h after illumination; embryos 4 dpf; value ± STD
Starred links: 1 amine or outer side, 2 acyl side, 3 side chain; linkers in the order of their positions; H or OH if unused. Positions of bridges follow the written chain, without caps; N, C: chain ends. Non-standard residues stand in square brackets, D forms with d. Residues, ends and D or L forms follow the SMILES beside them. *: point of attachment. X2 = Cc1sc(C(=O)[C@@H]2CCCN2[*:2])cc1C1=C(c2cc(C(=O)[*:1])sc2C)CCC1; Leu(3R-OH) = CC(C)[C@@H](O)[C@H](N)C(=O)O; X1 = CCCCN([C@@H](CC(C)C)C(=O)[*:2])[*:1]; NMeL = CN[C@@H](CC(C)C)C(=O)O; Isobutyryl = CC(C)C(=O)*; Orn = NCCC[C@H](N)C(=O)O; Dab = NCC[C@H](N)C(=O)O
Give the value, in units of µg/mL, as a plain number.

Here is how some compounds turned out for LD50 (opened)^1h.
CC[C@H](C)[C@@H]1NC(=O)c2cc(c(C)s2)C2=C(CCC2)c2cc(sc2C)C(=O)[C@@H]2CCCN2C(=O)[C@H]([C@@H](C)CC)NC(=O)[C@H](CCCN)NC(=O)[C@H](CC(C)C)NC(=O)[C@H](CC(C)C)N(C)C(=O)[C@@H](Cc2ccccc2)NC(=O)[C@H]([C@@H](C)CC)NC(=O)[C@H](CCCN)NC1=O [Peptide 10] (I[Orn]I[dF][NMeL]L[Orn]I; linker N-C via X2) :: 2.2
Cc1sc2cc1C1=C(CCC1)c1cc(sc1C)C(=O)[C@@H]1CCCN1C(=O)[C@H](C(C)C)NC(=O)[C@H](CCCN)NC(=O)[C@H]([C@H](O)C(C)C)NC(=O)[C@@H]1CCCN1C(=O)[C@@H](Cc1ccccc1)NC(=O)[C@H](C(C)C)NC(=O)[C@H](CCCN)NC(=O)[C@H](C(C)C)NC2=O [Peptide 13] (V[Orn]V[dF]P[Leu(3R-OH)][Orn]V; linker N-C via X2) :: 6.4
Cc1sc2cc1C1=C(CCC1)c1cc(sc1C)C(=O)[C@@H]1CCCN1C(=O)[C@H](C)NC(=O)[C@H](CCCN)NC(=O)[C@H](C(C)C)NC(=O)[C@@H]1CCCN1C(=O)[C@@H](Cc1ccccc1)NC(=O)[C@H](CC(C)C)NC(=O)[C@H](CCCN)NC(=O)[C@H](C(C)C)NC2=O [Peptide 3] :: 9.5
Cc1sc2cc1C1=C(CCC1)c1cc(sc1C)C(=O)[C@@H]1CCCN1C(=O)[C@H](C)NC(=O)[C@H](CCCN)NC(=O)[C@H](C(C)C)NC(=O)[C@@H]1CCCN1C(=O)[C@@H](Cc1ccccc1)NC(=O)[C@H](CC(C)C)NC(=O)[C@H](CCCN)NC(=O)[C@H](C)NC2=O [Peptide 4] (A[Orn]L[dF]PV[Orn]A; linker N-C via X2) :: 51.0
Cc1sc2cc1C1=C(CCC1)c1cc(sc1C)C(=O)[C@@H]1CCCN1C(=O)[C@H](C(C)C)NC(=O)[C@H](CCCN)NC(=O)[C@H]([C@H](O)C(C)C)NC(=O)[C@@H]1CCCN1C(=O)[C@@H](Cc1ccccc1)NC(=O)[C@H](C(C)C)NC(=O)[C@H](CCCN)NC(=O)[C@H]([C@H](O)C(C)C)NC2=O [Peptide 15] ([Leu(3R-OH)][Orn]V[dF]P[Leu(3R-OH)][Orn]V; linker N-C via X2) :: 22.9
Cc1sc2cc1C1=C(CCC1)c1cc(sc1C)C(=O)[C@@H]1CCCN1C(=O)[C@H](CC(C)C)NC(=O)[C@H](CCCCN)NC(=O)[C@H](C(C)C)NC(=O)[C@H](CCCCN)NC(=O)[C@H](CC(C)C)NC(=O)[C@@H]1CCCN1C(=O)[C@@H](Cc1ccccc1)NC(=O)[C@H](C(C)C)NC(=O)[C@H](CCCCN)NC(=O)[C@H](CC(C)C)NC(=O)[C@H](CCCCN)NC(=O)[C@H](C(C)C)NC2=O [Peptide 16] (VKLKV[dF]PLKVKL; linker N-C via X2) :: 5.6
Cc1sc2cc1C1=C(CCC1)c1cc(sc1C)C(=O)[C@@H]1CCCN1C(=O)[C@H](C(C)C)NC(=O)[C@H](CCCN)NC(=O)[C@H](C(C)C)NC(=O)[C@@H]1CCCN1C(=O)[C@@H](Cc1ccccc1)NC(=O)[C@H](C(C)C)NC(=O)[C@H](CCCN)NC(=O)[C@H](CCNC(=O)C(C)C)NC2=O [Peptide 8] ([Dab](Isobutyryl)[Orn]V[dF]PV[Orn]V; linker N-C via X2) :: 9.6
CCCCN1C(=O)[C@@H](Cc2ccccc2)NC(=O)[C@H](CC(C)C)NC(=O)[C@H](CCCN)NC(=O)[C@H]([C@@H](C)CC)NC(=O)c2cc(c(C)s2)C2=C(CCC2)c2cc(sc2C)C(=O)[C@@H]2CCCN2C(=O)[C@H](CC(C)C)NC(=O)[C@H](CCCN)NC(=O)[C@H]([C@@H](C)CC)NC(=O)[C@@H]1CC(C)C [Peptide 11] (I[Orn]L[dF][X1]I[Orn]L; linker N-C via X2) :: 4.0
Cc1sc2cc1C1=C(CCC1)c1cc(sc1C)C(=O)[C@@H]1CCCN1C(=O)[C@H](C(C)C)NC(=O)[C@H](CCCN)NC(=O)[C@H](C(C)C)NC(=O)[C@@H]1CCCN1C(=O)[C@@H](Cc1ccccc1)NC(=O)[C@H](C(C)C)NC(=O)[C@H](CCCN)NC(=O)[C@H]([C@@H](C)O)NC2=O [Peptide 6] (T[Orn]V[dF]PV[Orn]V; linker N-C via X2) :: 20.6

# ---- query compound ----
So what's the measured LD50 (opened)^1h for this one? Cc1sc2cc1C1=C(CCC1)c1cc(sc1C)C(=O)[C@@H]1CCCN1C(=O)[C@H](C(C)C)NC(=O)[C@H](CCCCN)NC(=O)[C@H](C(C)C)NC(=O)[C@@H](CCCCN)NC(=O)[C@H](CC(C)C)NC(=O)[C@@H]1CCCN1C(=O)[C@@H](Cc1ccccc1)NC(=O)[C@H](C(C)C)NC(=O)[C@H](CCCCN)NC(=O)[C@H](CC(C)C)NC(=O)[C@H](CCCCN)NC(=O)[C@H](C(C)C)NC2=O [Peptide 17] (VKLKV[dF]PL[dK]VKV; linker N-C via X2)
9.9
